STUDY TARGET: MCR-1 (Homo sapiens, UniProt Q01726)
Construct: expressed in transfected cells; host or cells: HEK 293
Sequence (Q01726 whole entry): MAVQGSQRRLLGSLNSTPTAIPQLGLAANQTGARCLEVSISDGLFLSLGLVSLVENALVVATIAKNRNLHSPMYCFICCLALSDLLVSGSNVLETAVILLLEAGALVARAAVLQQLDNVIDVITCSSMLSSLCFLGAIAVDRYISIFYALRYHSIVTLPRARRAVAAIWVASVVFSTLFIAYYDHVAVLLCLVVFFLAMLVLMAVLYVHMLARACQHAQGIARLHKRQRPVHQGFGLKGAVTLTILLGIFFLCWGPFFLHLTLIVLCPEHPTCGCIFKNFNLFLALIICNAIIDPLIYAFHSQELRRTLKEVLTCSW
ASSAY: Melanocortin receptor binding assay, competition with 125I-HP 467, HEK 293 cells expressing hMCR-1
RUN PARAMETERS: inhibition of binding of 125I-HP 467, HEK 293 cells expressing MCR-1; read-out: MC-1 IC50
RECORDED ENDPOINT: IC50 (µM)

Worked cases, answers included:
- CNC(CN)CCCCN1Cc2ccccc2C(CN)C1c1ccc([N+](=O)[O-])cc1 (stereo not drawn): 6.51
- CCNc1ccc(C2C(CN)c3ccccc3CN2CCCC[C@@H](CN)NCCCCOc2ccccc2)cc1 (stereo partly drawn): 0.22
- CCNc1ccc(C2C(CNC3CCCCC3)c3ccccc3CN2CCCC(CN)NCCc2ccc(OC)cc2)cc1 (stereo not drawn): 0.23

1. CCNc1ccc(C2C(CN)c3ccccc3CN2CCCC(CN)NCCCCNCc2ccccc2)cc1 (stereo not drawn)
2. CCCCNc1ccc(C2C(CNC3CCCCC3)c3ccccc3CN2CCCC(CN)NCCc2ccc(OC)cc2)cc1 (stereo not drawn)
3. CCCCOc1ccc(C2C(CN)c3ccccc3CN2CCCC(CN)NCCC2CCCCC2)cc1 (stereo not drawn)
4. CCCCNc1ccc(C2C(CNCCc3ccccc3)c3ccccc3CN2CCCC(CN)NCCc2ccc(Br)cc2)cc1 (stereo not drawn)
Ordering criterion: IC50; begin with the maximum. Your task in answering is to list the labels in the requested order.
3, 2, 4, 1
(3: 0.677 µM, 2: 0.35 µM, 4: 0.24 µM, 1: 0.082 µM)

A. CCNc1ccc(C2C(CN)c3ccccc3CN2CCCC(CN)NCCN)cc1 (stereo not drawn)
B. CCCCNc1ccc(C2C(CNCCc3ccccc3)c3ccccc3CN2CCCC(CN)NCCN)cc1 (stereo not drawn)
Recorded IC50 values differ for A and B ; which one is higher? Pick one and reply with its label.
B
(B: 0.3 µM, A: 0.06 µM)

1. CCCOc1ccc(C2C(CNCCc3ccccc3)c3ccccc3CN2CCCC(CN)NCc2ccccc2)cc1 (stereo not drawn)
2. CCNc1ccc(C2C(CNCCc3ccccc3)c3ccccc3CN2CCCC(CN)NCCc2ccccc2)cc1 (stereo not drawn) [TRG 2413-9]
Quick one: lower IC50, 1 or 2 ? // return label of chosen record
2

---

STUDY TARGET: MCR-1 (Homo sapiens, UniProt Q01726)
Construct: expressed in transfected cells; host or cells: HEK 293
ASSAY: Melanocortin receptor binding assay, competition with 125I-HP 467, HEK 293 cells expressing hMCR-1
RUN PARAMETERS: inhibition of binding of 125I-HP 467, HEK 293 cells expressing MCR-1; read-out: MC-1 IC50
pIC50: −log10 of the molar value.
RECORDED ENDPOINT: pIC50

Record excerpt, results attached:
* CCCCCc1ccc(C2C(CNCCc3ccccc3)c3ccccc3CN2CCCC(CN)NCc2ccccc2)cc1 (stereo not shown) [TRG 2412-30] | 6.21
* CCCCNc1ccc(C2C(CNCCc3ccccc3)c3ccccc3CN2CCCC(CN)NCc2ccc(OC)cc2)cc1 (stereo not shown) [TRG 2411-198] | 6.92

a. CCOc1ccc(C2C(CNCCc3ccccc3)c3ccccc3CN2CCCCC(CN)NC)cc1 (stereo not shown) [TRG 2412-4]
b. CCCCNC(CN)CCCN1Cc2ccccc2C(CN)C1c1ccc(NCC)cc1 (stereo not shown) [TRG 2411-177]
Returns the identifier with the smallest measured pIC50 among a and b . Indicate which entry you chose by stating its label.
a

---

STUDY TARGET: MCR-1 (Homo sapiens)
Construct: expressed in transfected cells; host or cells: HEK 293
ASSAY: Melanocortin receptor binding assay, competition with 125I-HP 467, HEK 293 cells expressing hMCR-1
RUN PARAMETERS: displacement of 125I-HP 467 at 10 μM isoquinoline compound; second of duplicate
RECORDED ENDPOINT: % Disp. MC-1 10 μM (%)

• CNC(CN)CN1Cc2ccccc2C(CNC2CCCCC2)C1c1cccc(C(F)(F)F)c1 (stereo not drawn) = 58.4
• CNC(CN)CN1Cc2ccccc2C(CNC2CCCCC2)C1c1cccc(F)c1F (stereo not drawn) = 54.2
• NCCN1Cc2ccccc2C(CNC2CCCCC2)C1c1ccc(Cl)cc1Cl (stereo not drawn) = 53

---

STUDY TARGET: MCR-1 (Homo sapiens, UniProt Q01726)
Construct: expressed in transfected cells; host or cells: HEK 293
ASSAY: Melanocortin receptor binding assay, competition with 125I-HP 467, HEK 293 cells expressing hMCR-1
RUN PARAMETERS: inhibition of binding of 125I-HP 467, HEK 293 cells expressing MCR-1; read-out: MC-1 IC50
RECORDED ENDPOINT: IC50 (nM)

* NCC(CCCCN1Cc2ccccc2C(CNCCc2ccc(Oc3ccccc3)cc2)C1c1cc(C(F)(F)F)cc(C(F)(F)F)c1)NCc1ccc(-c2ccccc2)cc1 (centres unmarked) | 36400
* COc1ccc(CCNCC2c3ccccc3CN(CCCCC(CN)NCc3ccc(Br)cc3)C2c2cc(C(F)(F)F)cc(C(F)(F)F)c2)cc1OC (centres unmarked) | 4790
* CCNc1ccc(C2C(CNCCc3ccccc3)c3ccccc3CN2CCCC(CN)NCCOCCNCCc2ccccc2)cc1 (centres unmarked) | 79

A. CCNC(CN)CCCCN1Cc2ccccc2C(CN)C1c1ccc(OCC)cc1 (centres unmarked)
B. CCNc1ccc(C2C(CNC3CCCCC3)c3ccccc3CN2CCCC(CN)NCc2ccc(OC)cc2)cc1 (centres unmarked)
Parameter metric = IC50. Return the lower-valued option from A and B . Write the label of whichever entry you select.
B
(B: 150 nM, A: 1330 nM)

---

STUDY TARGET: MCR-1 (Homo sapiens, UniProt Q01726)
Construct: expressed in transfected cells; host or cells: HEK 293
ASSAY: Melanocortin receptor binding assay, competition with 125I-HP 467, HEK 293 cells expressing hMCR-1
RUN PARAMETERS: inhibition of binding of 125I-HP 467, HEK 293 cells expressing MCR-1; TRG 2414 library; read-out: MC-1 IC50
RECORDED ENDPOINT: IC50 (µM)

Some molecules with known IC50 results, for comparison:
• CCOc1ccccc1CNCC1c2ccccc2CN(CCCCC(CN)NCc2ccccc2)C1c1cccc(Oc2ccccc2)c1 (stereo not drawn) = 6.65
• COc1ccccc1CCNCC1c2ccccc2CN(CCCCC(N)CN)C1c1ccc(Cl)cc1Cl (mixture of isomers) = 1.1
• NCC(CCCCN1Cc2ccccc2C(CNCCc2cccc(Cl)c2)C1c1cccc(Oc2ccccc2)c1)NCCc1ccccc1 (stereo not drawn) = 16.9
• COc1ccc(CNCC2c3ccccc3CN(CCCCC(CN)NCc3ccccc3)C2c2ccc(Cl)cc2Cl)cc1 (stereo not drawn) = 3.19
• COc1ccc(CCNCC2c3ccccc3CN(CCCCC(CN)NCc3ccccc3)C2c2ccc(Cl)cc2Cl)cc1 (stereo not drawn) = 2.65

I. COc1cccc(CNCC2c3ccccc3CN(CCCCC(CN)NCC(C)c3ccc(CC(C)C)cc3)C2c2ccc(Cl)cc2Cl)c1 (stereo not drawn)
II. CCOc1ccccc1CNCC1c2ccccc2CN(CCCCC(N)CN)C1c1cccc(Oc2ccccc2)c1 (mixture of isomers)
When their IC50 values are compared, which is larger, I or II ? Answer by stating the label of the chosen item.
I

a. CCCOc1ccc(C2C(CNCc3cccc(OC)c3)c3ccccc3CN2CCCCC(N)CN)cc1 (mixture of isomers)
b. COc1cccc(CNCC2c3ccccc3CN(CCCCC(CN)NCCc3ccccc3)C2c2ccc(Cl)cc2Cl)c1 (stereo not drawn)
Sorting by IC50 in descending order, would a or b appear first? Answer with the label corresponding to your selection.
b
(b: 4.97 µM, a: 0.739 µM)

a. CCCOc1ccc(C2C(CNCc3cccc(OC)c3)c3ccccc3CN2CCCCC(CN)NCc2ccccc2)cc1 (stereo not drawn)
b. NCC(N)CCCCN1Cc2ccccc2C(CNC2CCCCCC2)C1c1cc(C(F)(F)F)cc(C(F)(F)F)c1 (stereo not drawn)
c. CCOc1ccccc1CNCC1c2ccccc2CN(CCCCC(CN)NCC(C)c2ccc(CC(C)C)cc2)C1c1cc(C(F)(F)F)cc(C(F)(F)F)c1 (stereo not drawn)
d. COc1cccc(CNCC2c3ccccc3CN(CCCCC(CN)NCCc3ccccc3)C2c2cccc(Oc3ccccc3)c2)c1 (mixture of isomers)
e. CCCOc1ccc(C2C(CNCc3ccccc3C(F)(F)F)c3ccccc3CN2CCCCC(CN)NCCc2ccccc2)cc1 (mixture of isomers)
Descending sort on IC50 required. Answer format: the labels, ordered as requested.
c, e, d, b, a

---

STUDY TARGET: MCR-4 (Homo sapiens)
Construct: expressed in transfected cells; host or cells: HEK 293
Sequence (P32245 whole entry): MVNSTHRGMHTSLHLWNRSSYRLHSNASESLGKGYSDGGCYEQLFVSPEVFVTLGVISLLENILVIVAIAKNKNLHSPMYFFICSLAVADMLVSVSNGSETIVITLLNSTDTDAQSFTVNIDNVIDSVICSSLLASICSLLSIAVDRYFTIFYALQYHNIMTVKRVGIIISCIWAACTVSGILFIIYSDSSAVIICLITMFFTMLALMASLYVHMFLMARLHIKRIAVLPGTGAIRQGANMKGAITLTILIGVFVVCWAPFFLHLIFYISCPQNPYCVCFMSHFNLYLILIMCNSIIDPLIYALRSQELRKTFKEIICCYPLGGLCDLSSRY
ASSAY: Melanocortin receptor binding assay, competition with 125I-HP 467, HEK 293 cells expressing hMCR-4
RUN PARAMETERS: TRG 2406 and TRG 2407 libraries; inhibition of binding of 125I-HP 467; read-out: MC-4 IC50
RECORDED ENDPOINT: IC50 (µM)

Past entries and their recorded results:
- CCNc1ccc(C2C(CNc3cccc(OCC)c3)c3ccccc3CN2CCCCC(CN)NC)cc1 (stereo not shown) [TRG 2407-46]: 16.4
- CNC(CN)CCCCN1Cc2ccccc2C(CNCc2ccc(OC)cc2)C1c1ccc(Cl)cc1Cl (stereo not shown) [TRG 2407-19]: 2.04
- CCn1c2ccccc2c2cc(C3C(CNCc4ccccc4O)c4ccccc4CN3CCCCC(CN)NC)ccc21 (stereo not shown) [TRG 2406-22]: 1.79
- CNC(CN)CCCCN1Cc2ccccc2C(CNCc2ccccc2Cl)C1c1ccc(Cl)cc1Cl (stereo not shown) [TRG 2407-12]: 3.23
- CNC(CN)CCCCN1Cc2ccccc2C(CNCCc2ccccc2OC)C1c1ccc(Cl)cc1Cl (mixture of isomers) [TRG 2407-23]: 0.69
- CNC(CN)CCCCN1Cc2ccccc2C(CNc2ccccc2Cl)C1c1ccc(Cl)cc1Cl (stereo not shown) [TRG 2407-3]: 9.45

I. CNC(CN)CCCCN1Cc2ccccc2C(CN(C)c2ccccc2)C1c1ccc(Cl)cc1Cl (stereo not shown) [TRG 2407-2]
II. CCOc1ccccc1CNCC1c2ccccc2CN(CCCCC(CN)NC)C1c1ccc(Cl)cc1Cl (stereo not shown) [TRG 2407-15]
III. CNC(CN)CN1Cc2ccccc2C(CNCc2ccccc2O)C1c1cccc(Oc2ccc(Cl)c(Cl)c2)c1 (stereo not shown) [TRG 2406-3]
IV. CNC(CN)CCCCN1Cc2ccccc2C(CNCCc2ccccc2)C1c1ccc(Cl)cc1Cl (stereo not shown) [TRG 2407-21]
Please list the entries, largest IC50 first. Your answer should be the labels, listed in the requested order.
III, I, II, IV
(III: 9.69 µM, I: 6.26 µM, II: 0.78 µM, IV: 0.36 µM)

P. CNC(CN)CCCCN1Cc2ccccc2C(CNCCc2ccccc2Cl)C1c1ccc(Cl)cc1Cl (mixture of isomers) [TRG 2407-22]
Q. NCCN1Cc2ccccc2C(CNCc2ccccc2O)C1c1cccc(Oc2ccccc2)c1 (stereo not shown) [TRG 2406-8]
R. CCNc1ccc(C2C(CNc3ccc(Cl)cc3)c3ccccc3CN2CCCCC(CN)NC)cc1 (stereo not shown) [TRG 2407-48]
Write the entries in order, lowest recorded IC50 first. Put the labels in the order asked and list them.
P, Q, R

I. CCCOc1ccc(C2C(CNCc3ccccc3O)c3ccccc3CN2CCN)cc1 (stereo not shown) [TRG 2406-14]
II. CNC(CN)CCCCN1Cc2ccccc2C(CNCCCc2ccccc2)C1c1ccc(Cl)cc1Cl (stereo not shown) [TRG 2407-26]
Could you tell me which of I and II has the lower IC50 reading? Mark your answer with the label of the selected entry.
II
(II: 0.83 µM, I: 5.36 µM)
